Just for reference, patent US5776929A is where these values come from.

Target: gastrin receptor (Cavia porcellus, UniProt H0VZC5)
Construct: stomach was extracted from each animal immediately, from which gastric glands were prepared; from tissue; host or cells: gastric (fundic) glands of male Hartley guinea pigs
Sequence (H0VZC5 1-426): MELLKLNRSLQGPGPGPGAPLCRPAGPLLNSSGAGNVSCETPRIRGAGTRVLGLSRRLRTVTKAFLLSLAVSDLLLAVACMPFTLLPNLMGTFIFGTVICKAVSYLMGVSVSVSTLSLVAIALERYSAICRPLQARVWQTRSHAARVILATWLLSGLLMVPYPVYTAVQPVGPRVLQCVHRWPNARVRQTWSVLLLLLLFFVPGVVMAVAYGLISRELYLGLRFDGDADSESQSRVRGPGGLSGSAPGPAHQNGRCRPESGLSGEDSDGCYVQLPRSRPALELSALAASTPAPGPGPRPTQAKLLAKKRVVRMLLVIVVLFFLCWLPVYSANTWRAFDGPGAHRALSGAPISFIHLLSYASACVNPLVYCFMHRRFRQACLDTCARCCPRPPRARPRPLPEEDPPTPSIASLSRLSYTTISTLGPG
Assay: Gastrin receptor antagonism, displacement of 125I-labeled gastrin, gastric (fundic) gland cells
Type: binding, guinea pig (male Hartley)
Conditions: guinea pig gastric glands, 125I-gastrin 0.2 nM, 30 min, 25 °C; read-out: Receptor Gastrin (IC50)
Property Name: pIC50
Give bare numbers, as −log10 of the molar value.

Illustrative cases are given below, each with its answer.
- Input Smiles: "COC(=O)CCCNC(=O)OCc1cccc(NC(=O)NC2C(=O)N(CC(=O)C3CCCC3)c3ccccc3N(CC(=O)C3CCCC3)C2=O)c1"
  pIC50: 8.15
- Input Smiles: "O=C(O)COc1cccc(NC(=O)NC2C(=O)N(CC(=O)C3CC3)c3ccccc3N(CC(=O)C3CC3)C2=O)c1"
  pIC50: 8.52
- Input Smiles: "O=C(Nc1cccc(-c2nnn[nH]2)c1)NC1C(=O)N(CC(=O)c2cccs2)c2ccccc2N(CC(=O)c2cccs2)C1=O"
  pIC50: 8.70

Field: next compound
Challenge: Fill in: pIC50 on gastrin receptor (Cavia porcellus, UniProt H0VZC5), entry `O=C(O)CSc1cccc(NC(=O)NC2C(=O)N(CC(=O)C3CC3)c3ccccc3N(CC(=O)C3CC3)C2=O)c1`
Response given: 9.22
